These data points were gathered from patent US20210371459A1.

Target: XIAP-BIR3 (Homo sapiens)
Sequence (P98170 241-356 limits assumed): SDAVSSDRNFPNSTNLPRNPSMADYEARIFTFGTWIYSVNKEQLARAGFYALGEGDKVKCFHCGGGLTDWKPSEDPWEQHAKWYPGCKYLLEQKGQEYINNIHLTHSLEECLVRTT
Assay: XIAP-BIR3 fluorescence polarization binding assay
Conditions: FP, probe AbuRPFK-5FAM, 60 min at 25° C.
pIC50: −log10 of the molar value.
readout_name: pIC50

Challenge: Fill in the blank: the reported pIC50 of CN[C@@H](C)C(=O)N[C@H](C(=O)N1C[C@@H](OCCOCCO[C@H]2C[C@@H](C(=O)N[C@@H]3CCCc4ccccc43)N(C(=O)[C@@H](NC(=O)[C@H](C)NC)C3CCCCC3)C2)C[C@H]1C(=O)N[C@@H]1CCCc2ccccc21)C1CCCCC1 is ____.
Response given: 7.00 to 8.00

Challenge: Fill in the blank: the reported pIC50 of CN[C@@H](C)C(=O)N[C@H](C(=O)N1CCC[C@H]1C(=O)N[C@@H]1CCCc2c1cccc2N1CCN(c2cccc3c2CCC[C@H]3NC(=O)[C@@H]2CCCN2C(=O)[C@@H](NC(=O)[C@H](C)NC)C2CCCCC2)CC1)C1CCCCC1 is ____.
Response given: 7.00 to 8.00

* * *

Provide the reported IC50 of each item.
Target: XIAP-BIR3 (Homo sapiens)
Assay: XIAP-BIR3 fluorescence polarization binding assay
Conditions: FP, probe AbuRPFK-5FAM, 60 min at 25° C.

Challenge: For the record CN[C@@H](C)C(=O)N[C@H](C(=O)N1C[C@@H](OCCCN2CCN(CCCO[C@H]3C[C@@H](C(=O)N[C@@H]4CCCc5ccccc54)N(C(=O)[C@@H](NC(=O)[C@H](C)NC)C4CC4)C3)CC2)C[C@H]1C(=O)N[C@@H]1CCCc2ccccc21)C1CC1 , what value of IC50 is listed for XIAP-BIR3 (Homo sapiens)?
Response given: 100 to 1000 nM

Challenge: For the record CN[C@@H](C)C(=O)N[C@H](C(=O)N1C[C@@H](OCCCN2CCN(CCCO[C@H]3C[C@@H](C(=O)N[C@@H]4CCCc5ccccc54)N(C(=O)[C@@H](NC(=O)[C@H](C)NC)C(C)(C)C)C3)CC2)C[C@H]1C(=O)N[C@@H]1CCCc2ccccc21)C(C)(C)C , what value of IC50 is listed for XIAP-BIR3 (Homo sapiens)?
Response given: 10 to 100 nM

Challenge: For the record CN[C@@H](C)C(=O)N[C@H](C(=O)N1C[C@@H](OCCCN2CCN(CCCO[C@H]3C[C@@H](C(=O)N[C@@H]4CCCc5ccccc54)N(C(=O)[C@@H](NC(=O)[C@H](C)NC)C4CCC4)C3)CC2)C[C@H]1C(=O)N[C@@H]1CCCc2ccccc21)C1CCC1 , what value of IC50 is listed for XIAP-BIR3 (Homo sapiens)?
Response given: 10 to 100 nM

Challenge: For the record CN[C@@H](C)C(=O)N[C@@H](C)C(=O)N1C[C@@H](OCCCN2CCN(CCCO[C@H]3C[C@@H](C(=O)N[C@@H]4CCCc5ccccc54)N(C(=O)[C@H](C)NC(=O)[C@H](C)NC)C3)CC2)C[C@H]1C(=O)N[C@@H]1CCCc2ccccc21 , what value of IC50 is listed for XIAP-BIR3 (Homo sapiens)?
Response given: 100 to 1000 nM

* * *

Target: XIAP-BIR3 (Homo sapiens)
Experiment: XIAP-BIR3 fluorescence polarization binding assay
Conditions: FP, probe AbuRPFK-5FAM, 60 min at 25° C.
pIC50: −log10 of the molar value.
Provide the reported pIC50 of each item.

Challenge: For the record CC[C@H](C)[C@H](NC(=O)[C@H](C)NC)C(=O)N1C[C@@H](OCCCN2CCN(CCCO[C@H]3C[C@@H](C(=O)N[C@@H]4CCCc5ccccc54)N(C(=O)[C@@H](NC(=O)[C@H](C)NC)[C@@H](C)CC)C3)CC2)C[C@H]1C(=O)N[C@@H]1CCCc2ccccc21 [Compound II-G] , what value of pIC50 is listed for XIAP-BIR3 (Homo sapiens)?
Response given: 8.00 to 10.00

Challenge: For the record CN[C@@H](C)C(=O)N[C@H](C(=O)N1C[C@@H](OCCC(=O)N2CCN(C(=O)CCO[C@H]3C[C@@H](C(=O)N[C@@H]4CCCc5ccccc54)N(C(=O)[C@@H](NC(=O)[C@H](C)NC)C4CC4)C3)CC2)C[C@H]1C(=O)N[C@@H]1CCCc2ccccc21)C1CC1 [Compound IV-C] , what value of pIC50 is listed for XIAP-BIR3 (Homo sapiens)?
Response given: 6.00 to 7.00

Challenge: For the record CN[C@@H](C)C(=O)N[C@H](C(=O)N1C[C@@H](OCCC(=O)N2CCN(C(=O)CCO[C@H]3C[C@@H](C(=O)N[C@@H]4CCCc5ccccc54)N(C(=O)[C@@H](NC(=O)[C@H](C)NC)C4CCCCC4)C3)CC2)C[C@H]1C(=O)N[C@@H]1CCCc2ccccc21)C1CCCCC1 [Compound IV] , what value of pIC50 is listed for XIAP-BIR3 (Homo sapiens)?
Response given: 7.00 to 8.00

Challenge: For the record CC[C@H](NC(=O)[C@H](C)NC)C(=O)N1CCC[C@H]1C(=O)N[C@@H]1CCCc2c1cccc2N1CCN(c2cccc3c2CCC[C@H]3NC(=O)[C@@H]2CCCN2C(=O)[C@H](CC)NC(=O)[C@H](C)NC)CC1 [Compound I-B] , what value of pIC50 is listed for XIAP-BIR3 (Homo sapiens)?
Response given: 6.00 to 7.00
